Listed here: items and their measured protein stability index.
B1: TMEM120A (parent)
chain: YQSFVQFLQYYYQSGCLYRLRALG

variants of: B1; test: protein stability index of a GFP-peptide fusion (GPS, HEK-293T) (PSI 1-6); higher = more stable; details: c terminus: a fixed tail appended;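 note: lentivirally expressed fusions sorted by FACS into six bins by GFP to DsRed ratio, PSI derived from sequencing read proportions per bin multiplied by bin number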
Provide a numeric answer; units are not to be included.

sequenceVariant: L8G
protein stability index: 3.09

sequenceVariant: S14M
protein stability index: 2.02

sequenceVariant: G15S
protein stability index: 2.95

sequenceVariant: G24M
protein stability index: 2.92

Now let's try a different one.
Q: Provide only the value of recorded protein stability index for Y18I
Result: 2.96

Hey, just so you know, these numbers are from the supplement of paper PMC10567573.
